All values here come from ChEMBL document CHEMBL3804802.

target: Carbonic anhydrase 9 (Homo sapiens, UniProt Q16790)
pKi: −log10 of the molar value.
So basically: pKi at 8 or higher? That is condition met. Lower than 8? That is condition not met.

Substance Smiles: NS(=O)(=O)c1ccc(-n2cc(/C=N\Nc3nc(-c4cc5cc(Cl)ccc5oc4=O)cs3)c(-c3ccc(F)cc3)n2)cc1
Assay Target: Carbonic anhydrase 9 (Homo sapiens, UniProt Q16790)
Answer Label: condition met

Ask: Test whether the compound "NS(=O)(=O)c1ccc(-n2cc(/C=N\Nc3nc(-c4cc5cc(Cl)ccc5oc4=O)cs3)c(-c3ccccc3)n2)cc1" records pKi of 8 or higher.
Result: condition not met

Ask: Test whether the compound "NS(=O)(=O)c1ccc(-n2cc(/C=N\Nc3nc(-c4cc5cc(Br)ccc5oc4=O)cs3)c(-c3ccc(F)cc3)n2)cc1" records pKi of 8 or higher.
Result: condition not met

Ask: Test whether the compound "Cc1ccc(-c2nn(-c3ccc(S(N)(=O)=O)cc3)cc2/C=N\Nc2nc(-c3cc4cc(Cl)ccc4oc3=O)cs2)cc1" records pKi of 8 or higher.
Result: condition not met

Ask: Test whether the compound "NS(=O)(=O)c1ccc(-n2cc(/C=N\Nc3nc(-c4cc5ccccc5oc4=O)cs3)c(-c3ccc(F)cc3)n2)cc1" records pKi of 8 or higher.
Result: condition met

====

target: Carbonic anhydrase 9 (Homo sapiens)
Outcome Measure: Ki (µM)
Numbers only, in µM.

Substance Smiles: NS(=O)(=O)c1ccc2c(c1)sc1nc(-c3cc4cc(Br)ccc4oc3=O)cn12
Scale Unit: µM
Observed Value: 0.0249
--
Substance Smiles: NS(=O)(=O)c1ccc(Nc2nc(-c3cc4ccccc4oc3=O)cs2)cc1
Scale Unit: µM
Observed Value: 0.0238

Consider the additional molecule presented here.
Reported Carbonic anhydrase 9 (Homo sapiens) Ki for item "COc1ccc(-c2nn(-c3ccc(S(N)(=O)=O)cc3)cc2/C=N\Nc2nc(-c3cc4cc(Br)ccc4oc3=O)cs2)cc1" was 0.0201
